System: MALME-3M melanoma
Assay: NCI-60 one-dose screen, 48 h
Conditions: 10 µM unless noted
Compounds without any hit were thinned out: in the full panel of roughly 83,000, 20% have a hit. Activity calls are given as the source filed them. The calls were made as follows: active = growth percent below 10; inactive = the rest.
Field 'call' accepts class 1 = active, class 0 = inactive

Some solved cases for reference:
* O=S(=O)(NCCNc1nccc(-c2c(-c3cccc(F)c3)nc3occn23)n1)c1ccc(Br)cc1 | class 0
* C/C(=C(/c1ccc(Cl)cc1)c1ccc(OCCN2CCCC2)cc1)c1ccc(Cl)cc1 | class 0
* O=[N+]([O-])c1ccc(-c2nc(N3CCOCC3)c3c4c(sc3n2)CCCC4)cc1 | class 0
* O=C(CSc1nc2ccc([N+](=O)[O-])cc2[nH]1)Nc1cccc(C(F)(F)F)c1 | class 1
* c1ccc(C2=NN[C@H](c3cn(-c4ccccc4)nc3-c3ccccc3)C2)cc1 | class 0
* COc1ccc2c(O)c(/C=C3\N=Nc4ncccc43)oc2c1C[C@H]1CCNC[C@H]1F | class 1
* C=C(C)[C@@H]1CC[C@]2(C(=O)N3CCN(C)CC3)CC[C@]3(C)[C@H](CC[C@@H]4[C@@]5(C)CC(=C/c6ccncc6)/C(=N/O)C(C)(C)[C@@H]5CC[C@]43C)[C@@H]12 | class 0
* CN(C)CCNc1nc2c3cc(Cl)ccc3nn2c2ccccc12 | class 0

Check the results log: what was the call for Oc1c(Cl)cc(Cl)cc1/C=N/Nc1nnc(N/N=C/c2cc(Cl)cc(Cl)c2O)c2ccccc12 ?
class 0

###

Tested on: OVCAR-8 ovarian
Assay: NCI-60 one-dose screen, 48 h (100 = growth as untreated, 0 = no growth, -100 = all killed)
Settings: 10 µM unless noted
This is part of a sample that, as a whole, favours compounds with a hit. Of some 83,000 tested, about 20% had one in any assay. Calls of active or inactive are those of the source. The calls were made as follows: active = growth percent below 10; inactive = the rest.
reportedEndpoint: growth

Some entries whose results are on file:
* N#CC1=C(c2ccc(Cl)cc2)Nc2c(c(-c3ccc(Cl)cc3)nn2-c2ccccc2)C12C(=O)Nc1ccc(Cl)cc12 (configuration not stated) | 49.2% (inactive)
* Cn1cc(-c2nc(-c3c[nH]c4ccncc34)cs2)c2ccccc21 | 49.4% (inactive)
* Cc1ccc(NC(=S)NNC(=S)NNc2ccccc2)cc1C | 98.2% (inactive)
* N#Cc1cnc(NCCc2ccncc2)nc1-n1cnc2ccccc21 | 54% (inactive)
* O=C(c1ccc(Cl)cc1)N1CCN(c2ccnc3cc(Cl)ccc23)CC1 | 87.3% (inactive)
* COc1ccccc1Nc1nc2c(s1)C1=CC[C@H]3[C@@H]4CC[C@H]([C@H](C)CCCC(C)C)[C@@]4(C)CC[C@@H]3[C@@]1(C)CC2 | 103% (inactive)

Form field - read-out: growth; system: OVCAR-8 ovarian; submitted item: CN1CCN(Cc2ccc3c(NNC(=O)c4ccccc4)nc4cc(F)ccc4n23)CC1
17.6% (inactive)

Form field - read-out: growth; system: OVCAR-8 ovarian; submitted item: O=C(Nc1ccc(NC(=O)c2cc(=O)[nH]c3ccccc23)cc1)Nc1cccc(C(F)(F)F)c1
65.2% (inactive)

Form field - read-out: growth; system: OVCAR-8 ovarian; submitted item: Nc1ncnc2c1N=C(c1ccc3c(c1)OCO3)CC(c1cccc(Nc3ccnc4cc(Cl)ccc34)c1)N2 (configuration not stated)
51.1% (inactive)

Form field - read-out: growth; system: OVCAR-8 ovarian; submitted item: Oc1ccc(CN2CCC(N3CCCCC3)CC2)c2cccnc12
25% (inactive)

Form field - read-out: growth; system: OVCAR-8 ovarian; submitted item: Fc1ccc(Nc2nc3nonc3nc2Nc2ccc(I)cc2)cc1
4.01% (active)

###

Tested on: HS 578T breast
Assay: NCI-60 one-dose screen, 48 h
Settings: 10 µM unless noted
Compounds without any hit were thinned out: in the full panel of roughly 83,000, 20% have a hit. Active and inactive are the calls of the source. How the source made its calls: active means growth percent below 10; inactive means the rest.
Field 'call' accepts label 1 = active, label 0 = inactive

* C#COc1cccc(Nc2ncnc3ncc(NC(=O)CCl)cc23)c1 | label 0

Check the results log: what was the call for N#Cc1c(-c2cccs2)cc(-c2cccnc2)[nH]c1=O ?
label 0

###

Listing: growth of selected molecules
Tested on: HOP-92 NSCLC
Assay: NCI-60 one-dose screen, 48 h (100 = growth as untreated, 0 = no growth, -100 = all killed)
Details: 10 µM unless noted
About 83,000 compounds went through this panel and 20% of them were active in at least one assay; those are over-represented in the sample as a whole. Active and inactive are the calls of the source. Rule for the calls: active = growth percent below 10; inactive = the rest.

Some entries whose results are on file:
- C#CCOc1cccc(Nc2ncnc3ccc(NC(=O)CCl)cc23)c1: -76.5% (active)
- O=C(OCc1ccc2c(Cl)cc(Cl)c(O)c2n1)n1cncn1: 49.4% (inactive)
- CN(C)CC(=O)Nc1ccc2ncnc(Nc3ccc(Oc4cccc(C(F)(F)F)c4)c(Cl)c3)c2c1: 37.9% (inactive)
- C=C(CNCCc1ccc(O)cc1)[C@@H]1CC[C@]2(CO)CC[C@]3(C)[C@H](CC[C@@H]4[C@@]5(C)CCC(NCCO)C(C)(C)[C@@H]5CC[C@]43C)[C@@H]12 (some centres not stated): -62.6% (active)
- CC(C)N1CCN(Cc2ccc3c(NNC(=O)c4ccccc4)nc4cc(F)ccc4n23)CC1: 49% (inactive)
- O=C(O)[C@@H]1c2ccccc2-c2ccccc2[C@H]1C(=O)O: 61.5% (inactive)
- O=C(Cn1c2c(c3ccccc31)CCCC2)Nc1ccc(-c2nc3ccccc3s2)cc1: 89.6% (inactive)
- COC(=O)/C(CCC=C(C)C)=C1\[C@@H](OC(C)=O)C[C@@]2(C)[C@H]1C[C@@H](O)[C@H]1[C@@]3(C)CC[C@H](NCCN)[C@@H](C)[C@@H]3CC[C@@]12C: 53.1% (inactive)
- Oc1ccc(CN2CCC(N3CCCCC3)CC2)c2cccnc12: -11.8% (active)
- C[C@H](NC(=O)[C@@H](C)N)[C@H](Oc1ccc2c(cnn2-c2ccc(F)cc2)c1)c1ccc2c(c1)OCCO2: -4.6% (active)

I'd like to know its growth. The molecule in question is Oc1c(Cl)cc(Cl)c2ccc(Cn3cc(-c4cc(C(F)(F)F)cc(C(F)(F)F)c4)nn3)nc12
24.8% (inactive)

I'd like to know its growth. The molecule in question is C=C1C(=O)O[C@H]2[C@H]1CC/C(COC(=O)CSCCSCC(=O)OC/C1=C/CC[C@@]3(C)O[C@H]3[C@H]3OC(=O)C(=C)[C@@H]3CC1)=C\CC[C@@]1(C)O[C@@H]21
-0.141% (active)

###

System: MOLT-4 leukemia
Assay: NCI-60 one-dose screen, 48 h (100 = growth as untreated, 0 = no growth, -100 = all killed)
Conditions: 10 µM unless noted
About 83,000 compounds went through this panel and 20% of them were active in at least one assay; those are over-represented in the sample as a whole.
Listing: growth of selected compounds
API: value field is a number in %; no unit string.

Some entries whose results are on file:
- C=C(C)[C@@H]1CC[C@]2(C(=O)NCCNCCN)CC[C@]3(C)[C@H](CC[C@@H]4[C@@]5(C)C/C(=C/c6ccncc6)C(=O)C(C)(C)[C@@H]5CC[C@]43C)[C@@H]12: 82.9
- CC(C)(C)c1cc(-c2nc3ccc(N4CCN(S(C)(=O)=O)CC4)cc3[nH]2)cc(C(C)(C)C)c1O: 64.6
- CCOc1nc(-c2ccccc2)cc2c(O)c(C(=O)NN)[nH]c(=O)c12: 113
- COc1ccc(-c2nc(SCC(C)C)nc(N/N=C\c3ccc(F)cc3)c2C#N)cc1: 88.2
- COc1ccc2cc(-c3ccc(NC(C)=O)c(=O)o3)ccc2c1: 90.9
- CN(C)C1CCN(Cc2ccc(NC(=O)c3cncc(C#Cc4cnc(N)c5ncccc45)c3)cc2C(F)(F)F)CC1: 24.7
- COc1ccc(-c2nnc(-c3ccc4c(c3)nc(-c3ccncc3)n4C3CCCCC3)o2)cc1: 44.3
- O=C(Cn1c(=O)sc2ccccc21)NNS(=O)(=O)c1ccccc1[N+](=O)[O-]: 101

Form field - read-out: growth; system: MOLT-4 leukemia; submitted item: COc1ccc(C(=O)Nc2ncc(Cc3ccc(F)cc3)s2)cc1
14.8

Form field - read-out: growth; system: MOLT-4 leukemia; submitted item: COc1ccc(/C=C2\C(=O)N=C3N2NC(c2cc(Br)ccc2O)C=C(C)N3c2ccccc2)cc1 (stereo not given)
97.4

Form field - read-out: growth; system: MOLT-4 leukemia; submitted item: CC[C@]12C=CCN3CC[C@@]4(c5cc(NC(=O)CCC(=O)OCc6cn(Cc7ccc(F)cc7)nn6)c(OC)cc5N(C)[C@H]4[C@@](O)(C(=O)OC)[C@@H]1OC(C)=O)[C@@H]32
104

Form field - read-out: growth; system: MOLT-4 leukemia; submitted item: CN1CCN(Cc2ccc(NC(=O)c3cncc(C#Cc4cnc(N)c5ccccc45)c3)cc2C(F)(F)F)CC1
2.94

Form field - read-out: growth; system: MOLT-4 leukemia; submitted item: COC(C(=O)[C@@H](O)[C@@H](C)O)[C@@H]1Cc2cc3cc(O[C@H]4C[C@@H](O[C@H]5C[C@@H](O)[C@H](O)C(C)O5)[C@H](O)C(C)O4)c(C)c(O)c3c(O)c2C(=O)[C@H]1O[C@H]1C[C@@H](O[C@H]2C[C@@H](O[C@H]3C[C@@H](O)[C@H](OC)C(C)O3)[C@@H](O)C(C)O2)[C@H](O)C(C)O1 (stereo not given in full)
-6.79

Form field - read-out: growth; system: MOLT-4 leukemia; submitted item: CCN(CC)C(=S)SC(SC(=S)N(CC)CC)C(=O)c1nnn(-c2ccc([N+](=O)[O-])cc2)c1C
92.5

Form field - read-out: growth; system: MOLT-4 leukemia; submitted item: O=C(Cn1cc(CN2C(=O)c3ccccc3S2(=O)=O)nn1)Nc1nc2ccccc2s1
115
